Known MCC of a selection of compounds
assay: Cytotoxicity (MCC); type: cell-based; conditions: sheep, sheep fibroblast cells; MCC denotes cytotoxicity; Table 1
measured_quantity: MCC

* C[C@H](NC(=O)CCN1C[C@H](O)[C@@H](O)[C@H](O)[C@H]1CO)c1ccccc1 [Example 102] | > 1000 µg/mL
* O=C(CCN1C[C@H](O)[C@@H](O)[C@H](O)[C@H]1CO)N1CCN(c2ccccc2[N+](=O)[O-])CC1 [Example 94] | > 1000 µg/mL
* Cc1cccc(N2CCN(C(=O)CCN3C[C@H](O)[C@@H](O)[C@H](O)[C@H]3CO)CC2)c1 [Example 93] | > 1000 µg/mL
* O=C(CCN1C[C@H](O)[C@@H](O)[C@H](O)[C@H]1CO)Nc1ccc(OCCO)cc1 [Example 40] | > 1000 µg/mL
* N#Cc1cccc(NC(=O)CCN2C[C@@H](O)[C@@H](O)[C@H](O)[C@H]2CO)c1 [Example 68] | 500 µg/mL
* O=C(O)CCCN1C[C@H](O)[C@@H](O)[C@H](O)[C@H]1CO [Example 107] | > 1000 µg/mL
* O=C(CCN1C[C@H](O)[C@@H](O)[C@H](O)[C@H]1CO)Nc1ccccc1F [Example 16] | > 1000 µg/mL
* CC(C)c1ccccc1NC(=O)CCN1C[C@@H](O)[C@@H](O)[C@H](O)[C@H]1CO [Example 55] | 1000 µg/mL
* O=C(CCN1C[C@H](O)[C@@H](O)[C@H](O)[C@H]1CO)N1CCN(c2ccc(F)cc2)CC1 [Example 41] | 1000 µg/mL
* COc1ccc(NC(=O)CCN2C[C@H](O)[C@@H](O)[C@H](O)[C@H]2CO)cc1OC [Example 24] | > 1000 µg/mL
* CCOc1ccc(NC(=O)CCN2C[C@@H](O)[C@@H](O)[C@H](O)[C@H]2CO)cc1 [Example 76] | > 1000 µg/mL
* O=C(CCN1C[C@@H](O)[C@@H](O)[C@H](O)[C@H]1CO)N1CCN(c2ccc(F)cc2)CC1 [Example 82] | > 1000 µg/mL
* O=C(CCN1C[C@H](O)[C@@H](O)[C@H](O)[C@H]1CO)NCc1cccs1 [Example 101] | 1000 µg/mL
* O=C(CCN1C[C@H](O)[C@@H](O)[C@H](O)[C@H]1CO)N1CCN(c2ncccn2)CC1 [Example 99] | > 1000 µg/mL
* O=C(CCN1C[C@H](O)[C@@H](O)[C@H](O)[C@H]1CO)N1CCSCC1 [Example 100] | > 1000 µg/mL
* COc1cc(NC(=O)CCN2C[C@@H](O)[C@@H](O)[C@H](O)[C@H]2CO)cc(OC)c1 [Example 66] | 1000 µg/mL
* O=C(CCN1C[C@H](O)[C@@H](O)[C@H](O)[C@H]1CO)NCC(=O)c1ccccc1 [Example 90] | 1000 µg/mL
* O=C(CCN1C[C@H](O)[C@@H](O)[C@H](O)[C@H]1CO)Nc1ccc(C2CCCCC2)cc1 [Example 28] | > 1000 µg/mL
* O=C(CCN1C[C@H](O)[C@@H](O)[C@H](O)[C@H]1CO)Nc1ccc(F)cc1F [Example 18] | > 1000 µg/mL
* O=C(CCN1C[C@H](O)[C@@H](O)[C@H](O)[C@H]1CO)N1CCN(c2ccccc2F)CC1 [Example 92] | > 1000 µg/mL
* CCN(CC)CCOc1ccc(NC(=O)CCN2C[C@@H](O)[C@@H](O)[C@H](O)[C@H]2CO)cc1 [Example 50] | 1000 µg/mL
* O=C(CCN1C[C@H](O)[C@@H](O)[C@H](O)[C@H]1CO)Nc1ccc2c(c1)OCO2 [Example 31] | > 1000 µg/mL
* COc1cc(NC(=O)CCN2C[C@H](O)[C@@H](O)[C@H](O)[C@H]2CO)cc(OC)c1 [Example 25] | > 1000 µg/mL
* CC(C)c1ccccc1NC(=O)CCN1C[C@H](O)[C@@H](O)[C@H](O)[C@H]1CO [Example 14] | > 1000 µg/mL
* Cc1ccccc1N1CCN(C(=O)CCN2C[C@H](O)[C@@H](O)[C@H](O)[C@H]2CO)CC1 [Example 96] | > 1000 µg/mL
* N#Cc1cccc(NC(=O)CCN2C[C@H](O)[C@@H](O)[C@H](O)[C@H]2CO)c1 [Example 27] | > 1000 µg/mL
* O=C(CCN1C[C@H](O)[C@@H](O)[C@H](O)[C@H]1CO)Nc1ccc(OC(F)(F)C(F)Cl)cc1 (stereo partly drawn) [Example 12] | 1000 µg/mL
* O=C(CCN1C[C@H](O)[C@@H](O)[C@H](O)[C@H]1CO)Nc1ccccc1 [Example 34] | > 1000 µg/mL
* COC(=O)c1ccc(NC(=O)CCN2C[C@@H](O)[C@@H](O)[C@H](O)[C@H]2CO)cc1 [Example 43] | > 1000 µg/mL
* O=C(CCN1C[C@@H](O)[C@@H](O)[C@H](O)[C@H]1CO)Nc1ccc(OC(F)(F)C(F)Cl)cc1 (stereo partly drawn) [Example 53] | 500 µg/mL
* C=CCOc1ccc(NC(=O)CCN2C[C@@H](O)[C@@H](O)[C@H](O)[C@H]2CO)cc1 [Example 51] | 1000 µg/mL
* O=C(CCN1C[C@H](O)[C@@H](O)[C@H](O)[C@H]1CO)NCc1ccccn1 [Example 38] | 1000 µg/mL
* CC(C)c1ccc(NC(=O)CCN2C[C@@H](O)[C@@H](O)[C@H](O)[C@H]2CO)cc1 [Example 54] | 1000 µg/mL

###

assay: Cytotoxicity (MCC); format: cell-based; conditions: sheep, sheep fibroblast cells; MCC denotes cytotoxicity; Table 1
measured_quantity: MCC

* C=CCOc1ccc(NC(=O)CCN2C[C@H](O)[C@@H](O)[C@H](O)[C@H]2CO)cc1 | > 1000 µg/mL
* O=C(CCN1C[C@H](O)[C@@H](O)[C@H](O)[C@H]1CO)Nc1ccc(C(F)(F)F)cc1 | > 1000 µg/mL
* CSc1ccccc1NC(=O)CCN1C[C@H](O)[C@@H](O)[C@H](O)[C@H]1CO | > 1000 µg/mL
* O=C(CCN1C[C@H](O)[C@@H](O)[C@H](O)[C@H]1CO)Nc1ccc(F)c(F)c1 | > 1000 µg/mL
* O=C(CCN1C[C@H](O)[C@@H](O)[C@H](O)[C@H]1CO)Nc1ccc(OCc2ccccc2)cc1 | > 1000 µg/mL
* O=C(CCN1C[C@@H](O)[C@@H](O)[C@H](O)[C@H]1CO)Nc1ccc(F)c(F)c1 | > 1000 µg/mL
* CCCCNC(=O)CCN1C[C@H](O)[C@@H](O)[C@H](O)[C@H]1CO | > 1000 µg/mL
* O=C(CCN1C[C@H](O)[C@@H](O)[C@H](O)[C@H]1CO)NCc1ccc(C(F)(F)F)cc1 | 1000 µg/mL
* O=C(CCN1C[C@@H](O)[C@@H](O)[C@H](O)[C@H]1CO)Nc1ccc2c(c1)OCO2 | > 1000 µg/mL
* Cc1ccc(N2CCN(C(=O)CCN3C[C@H](O)[C@@H](O)[C@H](O)[C@H]3CO)CC2)cc1 | > 1000 µg/mL
* O=C(CCN1C[C@H](O)[C@@H](O)[C@H](O)[C@H]1CO)N1CCc2ccccc21 | 1000 µg/mL
* O=C(CCN1C[C@H](O)[C@@H](O)[C@H](O)[C@H]1CO)Nc1ccc2c(c1)OCCO2 | > 1000 µg/mL
* C[C@@H](NC(=O)CCN1C[C@H](O)[C@@H](O)[C@H](O)[C@H]1CO)c1ccccc1 | > 1000 µg/mL
* CC(C)(C)c1ccc(NC(=O)CCN2C[C@H](O)[C@@H](O)[C@H](O)[C@H]2CO)cc1 | > 1000 µg/mL
* COc1cc(NC(=O)CCN2C[C@H](O)[C@@H](O)[C@H](O)[C@H]2CO)cc(OC)c1OC | 150 µg/mL
* CCOc1ccc(NC(=O)CCN2C[C@H](O)[C@@H](O)[C@H](O)[C@H]2CO)cc1 | 250 µg/mL

The measurements presented in this section are drawn from patent US4940705A.
